- Tested on: VDR:RXRa (NR concentration 270 nM, RXRa partner concentration 90 nM)
- Method Notes: PBM binding z-score (relative to random genomic background probes); higher = stronger binding; sequences stand for … in GC…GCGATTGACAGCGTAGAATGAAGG
Hi, to clarify the labels: Yes covers PBM binding z-score from 2 upward, No covers anything below 2.

* CAAACTAGGTGACCGGAAGGTCAAAGTCCGCATG | Yes
* CCGATTGGGGCAGAAAGGTTACCATACCATCCGG | No
* CCGACTGGGGCAGAAAGCTTACCATACCATCCGG | No
* CGAACGAGGGCATGAGTTGAGAGCAAATGCCGAT | No
* TCTTGTAGATCAACAGGCGGTTAAGAAAGATCGA | No
* ACAGACAGGTGAGTGAAGGTAACTCACCTGGACG | No
* TCAAATAGGTAAAAGGTGAAAGTCGGTGTGGTAA | No
* ACCTCTAGGTAACCAAGTTCAGTGAATGCCGAAC | Yes
* CGGACTAGGTCATCCAGGACAGTGAATACATTGA | Yes
* GCTCGGAGGTCAAGGTCAGAGCTTTGTCCGTAGA | Yes
* GCATATAGGTAATACAAGGTGACAGTCCGATTGT | No
* TCTAGTTGGTCAAAGGTCACACGCTCGAAATGCG | Yes
* TCCATTAGTTGAAGGGCAACCGACGAGTCCGTTT | No
* CCAGACAGTTGAGAAGGTAACTCAGCCTCGATTA | No
* ACTATTAGGTGACTTAGGGCAACCGATACGACGC | No
* CCGAGTAGGTTATGGGGCATTGAGGCAACGGTGA | No
* CCAGACAGGTGAATGGTAACTCAGTCTGGTACGC | No
* ACTAGCAGGCCAAGGGTCACTCAGGATTAGTCCG | Yes
* CTACCAAGGTGAACAAGGTCCTTGATTACTATTC | Yes
* GCTAGCAGACCATTTGGGTCACTCAATGACGGGC | No
* GCAGACAGGTGAAACGCAGGTAACACAGGGTGGC | No
* TTACCGAGGTGAAGGTCGTTGATCCCTCTGTAGA | No
* ACTAGCAGGCCAAGTTTGGTTCACTCAAACAAAG | No
* CCTAGCTGGCCAATCTGGGTCACTCAAGGCTTGA | No
* TCGAGTAGGTTCGGGGCATTCAGAATGGCGTCGA | No
* CCAAGTTGGTCAGGAGGTCACACACCGGATATGA | Yes

###

- System: VDR:RXRa (NR concentration 270 nM, RXRa partner concentration 90 nM)
- Method Notes: PBM binding z-score (relative to random genomic background probes); higher = stronger binding; sequences stand for … in GC…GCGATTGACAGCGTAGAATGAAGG
Listing of entries alongside the reported PBM binding z-score.
Measurement Label: PBM binding z-score

- CAGCCTAGGTCAGGGCCAGTATTGGAGGAACGTT: -0.0862
- TAGCCTAGGTCAGATCGGGCCAGTTTACGCTATA: 0.663
- GGAACGAGGGCAAGTTGTTAGCAGAGTTTGATGG: 0.88
- ACTAGCAAGCCAAGGGTCACTCAAGATTAGTCCG: 2.68
- CGTCCAAGGTCAGAGAGGTCAGTCAATGCCGAGT: 7.68
- ATCTCTAGGTCACAAGTTCAGTGAAAGAGAGGAC: 4.26
- CCAGACAGGTGAAAGGTAACTCGGTCTGGTACGC: 0.865
- CCTACTGGGCCACGAAAGGTCATAGATTCAGTGA: 3.89
- TCTTGTAGATGAACAGGAGGTTAAGAAAGATCGA: 0.644
- ATCGAAAGGTCGAGCTGAGTATAGAGAAAGGGAA: 2.53
- GGTAGCAGGCCATTTGGGTCACTCAATGACGGGC: 1.14
- CGTCAAAGTTCAAGGTAACGTTACAGAAAGCAGC: 3.97
- TCATTTAGGTAATACAGGTGAAAGTCGGCATCTA: 1.18
- AGTCAATGTTCAGGACGAGGTAACGTAAAGCACG: 0.00608
- AGAATGAGGTTATTAAGATCAGGTAATTGCGGTC: 2.82
- CCTACTGGGCCAAAGGTCATGGATTCCAATGCTC: 4.85
- AGAACGAGGGCACGCTGAGTTGATAGCAGAGTAG: 2.2
- ACTAGTTGGTCAGCTGAGGTCATACACAATTCGG: 4.73
- CCAGACAGGTGAGTAGGTAACTCAGCCTCGATTA: -0.168
- GCGACTGGGGCAAAGCAGGTTACCATCAGGTTGG: -0.194
- AATACAGGGTCATCGTAGGCCAGGGTACGCACAG: 5.25
- CCGACTGGGGCAAGGTTACCACAACGCACAGCCA: 0.188
- CCTTACGGGTTACTGACAGGTTATAGCATTTGGA: 0.637
- CAAACTAGGTCAAAGGCCAAAGTCGAGCCAACCA: 2.6
- CCTTACGGGTCATGAGGTTATAGCACGACGAGCG: 4.92
- CCTCGGAGCACAACAGGAGGTCAGAGCTGCCAGA: 1.32
- CAGCCAAGGTCAGGGCCAGTATAGGAGGAACGTT: 2.4
- CGAACGAGGGCATGAGGTGATAGCAAATGCCGAT: 0.93
- CCTTACGGGACACTGACAGGTTATAGCATTTGGA: -0.00746
- TCGAGTAGGTTACCAATGGGGTATTCAGCTTTCT: 0.0284
- GGAACCAGGGCAAAGTTGATAGCATCTGTCGACG: 0.607
- ACAGACAGGTGAGTGAAGGAAACTCAGCTGGACG: -0.816
- TAGCCTATGTCATGCGGGCCAGTATAGTGTCGGC: -0.45
- CAACCTAGGTCAAAGGTCAAAGTCGAGCCAACCA: 7.01
- CAAACTAGGTCATCCAGGACAGTGAATACATTGA: 4.58
- ACTTACGGGACAACGAGGTTATAGCACGCGTATA: 2.29
- ACTAGTTGGTCAGCTGAGCTCACACACAATTCGG: -0.299
- GCGACTGGGGCAAATCAGGTTACCATAAGGTTGG: 0.324
- CTTCCAAGGTCAATGCTAGGTCAGTGAAAGCATT: 4.72
- CTCGAAAGGTCGGTTGGGGTGAGTATACGGATAA: 3.24
- CAAACTAGGTCAAGGTAAAAGTCGGTTTGTGCCA: 1.79
- GCATATAAGTAATACAAGGTGAAAGTCCGATTGT: 0.0691
- CCGCGGAGGACAGAAGGTCAGAGCTGTCCGCTTT: 0.646
- CATACAGGGTCAGCTAGGCCACAGTAGGGACGGC: 4.79
- GCATATAGGTAATACAAGGTGAAAATCCGATTGT: 0.212
- CCGAGTAGGTTATGGTGCATTCAGGCAACGGTGA: 0.0938
- AGAATGAGTTTAAGATCAGGGAAACAGAATACAT: 0.803
- TCTTTTAGTTGATTAGGGCAACCGAAACAGCGGA: 0.986
- ACTACCAGGCCAAGGGTCACTCAAGATTAGTCCG: 3.07
- CCTAGTTGGTCACGAGGTCACACACCGGATATGA: 4.77
- CCTAGTTGGTCAGGAGGTCAGACACCGGATATGA: 2.22

src = the supplement of paper PMC6555819
